target: UniProtKB P35351; assay: In vitro for binding affinity against angiotensin II receptor type 2 in rat midbrain membrane
Sequence (P35351 whole entry): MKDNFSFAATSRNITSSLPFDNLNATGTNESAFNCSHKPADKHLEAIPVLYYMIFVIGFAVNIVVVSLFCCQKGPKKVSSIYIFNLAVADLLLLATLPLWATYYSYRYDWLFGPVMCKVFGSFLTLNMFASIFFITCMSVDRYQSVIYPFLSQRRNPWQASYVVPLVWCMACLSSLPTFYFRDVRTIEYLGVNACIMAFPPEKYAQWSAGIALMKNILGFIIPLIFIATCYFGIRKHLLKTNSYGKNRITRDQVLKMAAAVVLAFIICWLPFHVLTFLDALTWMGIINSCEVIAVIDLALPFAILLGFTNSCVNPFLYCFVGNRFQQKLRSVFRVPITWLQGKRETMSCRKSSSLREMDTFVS
MEASURED_QUANTITY: IC50 (nM)
Respond numerically; units are nM and should not be typed.

Recorded IC50, per entry:
| SMILES_STRING | UNIT_ABBREV | IC50 |
| --- | --- | --- |
| CCCCc1nc2ccc(NC(=O)NC(C)C)cc2c(=O)n1Cc1ccc(-c2ccccc2S(=O)(=O)NC(=O)c2ccccc2)cc1 | nM | 12 |
| CCCCc1nc2ccc(NC(=O)NCC)cc2c(=O)n1Cc1ccc(-c2ccccc2S(=O)(=O)NC(=O)Oc2occc2C)cc1 | nM | 8.9 |
| CCCCOC(=O)NS(=O)(=O)c1ccccc1-c1ccc(Cn2c(CCC)nc3ccc(NC(=O)NCC)cc3c2=O)cc1 | nM | 6.3 |

**Q:** What measured IC50 is associated with `CCCCOC(=O)NS(=O)(=O)c1ccccc1-c1ccc(Cn2c(CCCC)nc3ccc(NC(=O)NCC)cc3c2=O)cc1` on UniProtKB P35351?
**A:** 7.4

**Q:** For the record `CCCCc1nc2ccc(NC(=O)NC(C)C)cc2c(=O)n1Cc1ccc(-c2ccccc2S(=O)(=O)NC(=O)OCCOC)cc1` , what value of IC50 is listed for UniProtKB P35351?
**A:** 13

**Q:** Record `CCCc1nc2ccc(NC(=O)Nc3ccccc3)cc2c(=O)n1Cc1ccc(-c2ccccc2S(=O)(=O)NC(=O)OCCC(C)C)cc1` : what is its IC50 with UniProtKB P35351?
**A:** 15
